The origin of these recorded values is ChEMBL document CHEMBL3621196.

test.method.notes: Cytotoxicity against human HEK293 cells assessed as cell viability using propidium iodide by flow cytometry
Type: cell-based
settings: read-out: Activity
# viability annotations

Problem: Returns the measured viability for the input compound. Input: O=c1[nH]c(=O)c2cc(S(=O)(=O)Nc3ccc(Cn4ccnc4)cc3)ccc2[nH]1
Solution: > 80%

Problem: Returns the measured viability for the input compound. Input: O=c1[nH]c(=O)c2cc(S(=O)(=O)Nc3ccc(Oc4cccnc4)cc3)ccc2[nH]1
Solution: > 50%

Problem: Returns the measured viability for the input compound. Input: O=c1[nH]c(=O)c2cc(S(=O)(=O)Nc3cccc(CCc4ccncc4)c3)ccc2[nH]1
Solution: > 80%
